Experimental system: Human GLP-1 receptor (Homo sapiens)
Construct: expressed in transfected cells
Sequence (P43220 24-463): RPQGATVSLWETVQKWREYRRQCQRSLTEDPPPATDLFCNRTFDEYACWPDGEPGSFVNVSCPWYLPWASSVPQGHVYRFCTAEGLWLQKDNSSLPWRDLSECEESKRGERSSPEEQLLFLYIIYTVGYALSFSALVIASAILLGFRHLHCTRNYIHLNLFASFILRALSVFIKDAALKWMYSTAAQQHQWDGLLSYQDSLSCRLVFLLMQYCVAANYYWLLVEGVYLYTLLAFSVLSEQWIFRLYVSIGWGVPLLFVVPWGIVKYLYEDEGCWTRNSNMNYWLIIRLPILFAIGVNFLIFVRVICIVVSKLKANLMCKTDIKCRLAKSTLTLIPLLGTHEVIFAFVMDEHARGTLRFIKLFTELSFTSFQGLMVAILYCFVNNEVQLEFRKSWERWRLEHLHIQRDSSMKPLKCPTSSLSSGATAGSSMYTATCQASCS
Measurement description: Measurement of GLP-1 receptor agonist activity (cAMP assay)
Assay type: cell-based
Assay conditions: cAMP increase in GLP-1 R/CHO-K1 cells; 2 nM human GLP-1 (7-36) = 100%, DMSO only = 0%
pEC50: −log10 of the molar value.
Outcome: rule met for pEC50 of at least 10; rule not met for anything lower.

See these solved cases before continuing.
C[C@H]1c2cc(OCc3ccc(Cl)cc3Cl)c(Cl)cc2CCN1Cc1nc2ccc(C(=O)O)cc2n1C[C@@H]1CCO1: rule not met
COc1cc(C(=O)O)cc2c1nc(CN1CCc3cc(C(F)(F)F)c(OCc4ccc(Cl)cc4F)nc3[C@@H]1C)n2C[C@@H]1CCO1: rule met
C[C@H]1c2nc(OCc3ccc(C4CC4)cc3)c(C(F)(F)F)cc2CCN1Cc1nc2ccc(C(=O)O)cc2n1C[C@@H]1CCO1: rule not met
COc1cc(C(=O)O)cc2c1nc(CN1CCc3cc(C(F)(F)F)c(OCc4ccc(C#N)cc4F)nc3[C@@H]1C)n2C[C@@H]1CCO1: rule met

Shift focus to the following entry.
Input line: Is the recorded value of pEC50 equal to or greater than 10 for this compound? `COc1cc(Cl)ccc1COc1cc2c(cc1Cl)CCN(Cc1nc3c(F)cc(C(=O)O)cc3n1C[C@@H]1CCO1)[C@H]2C`
Output line: rule not met
